Listed below: Comparisons IR/IGF-1R values for each entry.
- tested on: IR (Homo sapiens, UniProt P06213)
- Sequence (P06213 28-758 limits assumed): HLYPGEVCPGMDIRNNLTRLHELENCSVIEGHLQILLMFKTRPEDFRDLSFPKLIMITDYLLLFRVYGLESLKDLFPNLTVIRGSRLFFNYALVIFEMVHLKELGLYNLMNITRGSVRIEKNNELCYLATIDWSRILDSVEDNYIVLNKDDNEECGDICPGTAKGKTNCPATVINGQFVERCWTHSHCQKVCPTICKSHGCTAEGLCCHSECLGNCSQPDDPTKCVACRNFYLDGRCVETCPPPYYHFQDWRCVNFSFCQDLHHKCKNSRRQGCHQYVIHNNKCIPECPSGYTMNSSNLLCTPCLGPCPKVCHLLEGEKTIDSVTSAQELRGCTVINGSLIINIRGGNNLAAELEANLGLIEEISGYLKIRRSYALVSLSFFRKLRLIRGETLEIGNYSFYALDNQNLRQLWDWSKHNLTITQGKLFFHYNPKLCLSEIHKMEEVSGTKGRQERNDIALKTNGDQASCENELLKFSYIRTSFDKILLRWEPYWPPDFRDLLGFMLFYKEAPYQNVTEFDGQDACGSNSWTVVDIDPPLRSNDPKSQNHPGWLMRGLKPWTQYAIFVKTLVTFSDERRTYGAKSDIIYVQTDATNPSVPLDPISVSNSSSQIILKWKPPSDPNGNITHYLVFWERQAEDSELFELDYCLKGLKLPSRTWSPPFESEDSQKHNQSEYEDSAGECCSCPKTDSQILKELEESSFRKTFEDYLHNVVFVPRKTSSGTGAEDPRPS
- Sequence (P06213 763-956 limits assumed): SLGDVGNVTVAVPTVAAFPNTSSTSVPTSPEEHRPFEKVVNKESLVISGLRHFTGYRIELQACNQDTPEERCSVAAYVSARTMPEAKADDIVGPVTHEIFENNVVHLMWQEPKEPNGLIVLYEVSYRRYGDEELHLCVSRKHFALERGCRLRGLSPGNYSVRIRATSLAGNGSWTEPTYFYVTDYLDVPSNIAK
- run description: Phage ELISA, binding of phage clones to IR (ratio over background)
- protocol conditions: ratio of IR divided by ratio of IGF-1R
observable: Comparisons IR/IGF-1R

- chain: "PAGPCGFYCGLGLLLHGDQSP [20E2B-4-H8-IGFR]"
  observable: "Comparisons IR/IGF-1R"
  sign: "="
  reading: 0.2
- chain: "RQGTGSFYLMLEQLLVGARGP [20E2B-4-G11-IGFR]"
  observable: "Comparisons IR/IGF-1R"
  sign: "="
  reading: 0.1
- chain: "DSVGDNFYQLLESLVGGHGVG [20E2B-3-D6-IGFR]"
  observable: "Comparisons IR/IGF-1R"
  sign: "="
  reading: 0.1
- chain: "TFYSCLASLLTGTPQPNRGPWERCR [20C-3-G3-IGFR]"
  observable: "Comparisons IR/IGF-1R"
  sign: "<"
  reading: 0.1
- chain: "LRIANLFYQRLWDLAFGGGG [20E2B-3-E8-IFGR]"
  observable: "Comparisons IR/IGF-1R"
  sign: "="
  reading: 0.1
- chain: "LSSDGQFYRALNLLLQGSAGR [20E2B-2-B7-IGFR]"
  observable: "Comparisons IR/IGF-1R"
  sign: "="
  reading: 0.1
- chain: "HLADGQFHEKFYDWFERQISSRCNDC [H2CA-3-E11-IGFR]"
  observable: "Comparisons IR/IGF-1R"
  sign: "="
  reading: 0.5
- chain: "GCVVEWQKWHGASDPFYHKLSELGGCS [B6Hα-3-F10-IR]"
  observable: "Comparisons IR/IGF-1R"
  sign: "="
  reading: 0.2
- chain: "QSGSGDFYDWLSRLIRGNGDG [20E2Bβ-3-C7-IR]"
  observable: "Comparisons IR/IGF-1R"
  sign: "="
  reading: 0.5
- chain: "QGNVLDFYGWIGRLLAKQGSD [20E2B-3-D12-IGFR]"
  observable: "Comparisons IR/IGF-1R"
  sign: "="
  reading: 0.1
- chain: "YRGMLVLGRISGGAGKAASERPARIGQKVSAVNFYDWFV [Peptide A6L-0-H3-IR]"
  observable: "Comparisons IR/IGF-1R"
  sign: "="
  reading: 0.1
- chain: "GHYFGSFYDAIDQLVAGMLPG [20E2A-3-A3-IGFR]"
  observable: "Comparisons IR/IGF-1R"
  sign: "="
  reading: 0.5
- chain: "GCITAENGAGDPFYHKLSELGGCS [Peptide B6Hα-1-B3-IR]"
  observable: "Comparisons IR/IGF-1R"
  sign: "="
  reading: 0.3
- chain: "RLFYCGIQALGANLGYSGCV [R20α-4-20A12-IR]"
  observable: "Comparisons IR/IGF-1R"
  sign: "="
  reading: 0.1

---

- tested on: IGF-1R (Homo sapiens)
- Sequence (P08069 31-736 limits assumed): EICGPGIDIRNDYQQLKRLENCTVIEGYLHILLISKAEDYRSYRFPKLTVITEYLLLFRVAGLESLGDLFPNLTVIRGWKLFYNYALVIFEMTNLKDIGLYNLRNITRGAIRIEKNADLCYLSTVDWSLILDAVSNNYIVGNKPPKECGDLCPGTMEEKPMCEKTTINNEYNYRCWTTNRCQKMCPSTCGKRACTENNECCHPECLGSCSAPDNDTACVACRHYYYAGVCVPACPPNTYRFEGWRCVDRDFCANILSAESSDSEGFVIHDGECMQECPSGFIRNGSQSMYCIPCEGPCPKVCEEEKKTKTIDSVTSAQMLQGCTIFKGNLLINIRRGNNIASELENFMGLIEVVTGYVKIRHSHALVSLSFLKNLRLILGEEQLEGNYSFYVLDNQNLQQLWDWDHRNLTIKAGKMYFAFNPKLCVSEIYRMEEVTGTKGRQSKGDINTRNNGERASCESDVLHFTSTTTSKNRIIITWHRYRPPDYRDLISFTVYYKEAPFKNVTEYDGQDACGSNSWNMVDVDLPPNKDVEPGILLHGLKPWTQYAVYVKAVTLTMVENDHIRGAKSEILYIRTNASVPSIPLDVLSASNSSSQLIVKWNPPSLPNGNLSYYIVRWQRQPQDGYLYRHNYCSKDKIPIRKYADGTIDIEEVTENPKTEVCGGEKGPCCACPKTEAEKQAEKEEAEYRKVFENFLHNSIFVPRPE
- Sequence (P08069 741-935 limits assumed): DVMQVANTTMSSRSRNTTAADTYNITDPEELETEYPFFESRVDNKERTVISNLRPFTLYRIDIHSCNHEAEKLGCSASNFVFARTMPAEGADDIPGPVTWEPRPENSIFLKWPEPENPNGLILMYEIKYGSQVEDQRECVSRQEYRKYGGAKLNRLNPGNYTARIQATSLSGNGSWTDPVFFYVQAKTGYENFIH
- run description: Phage ELISA, binding of phage clones to IGF-1R (ratio over background)
- protocol conditions: ratio of IGF-1R divided by ratio of IR
Please enter Y where Comparisons IGF-1R/IR is greater than or equal to 6, and N where it is lower.

- chain: "QGGSASFYDAIDRLLRMRIGG [20E2A-4-F11-IGFR]"
  tested on: "IGF-1R (Homo sapiens)"
  qualitative label: "Y"
- chain: "GNGDGMFYQLLSLLVGRDMHV [20E2B-3-C2-IGFR]"
  tested on: "IGF-1R (Homo sapiens)"
  qualitative label: "Y"
- chain: "FYVQQWGHENFYDWFDRQVSQSGGAG [H2CA-4-F1-IGFR]"
  tested on: "IGF-1R (Homo sapiens)"
  qualitative label: "N"
- chain: "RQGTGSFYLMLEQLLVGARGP [20E2B-4-G11-IGFR]"
  tested on: "IGF-1R (Homo sapiens)"
  qualitative label: "Y"
- chain: "SRAKVEAEMPDSGDPFYHKLSELLASG [Peptide B6Hα-1-A3-IR]"
  tested on: "IGF-1R (Homo sapiens)"
  qualitative label: "N"
- chain: "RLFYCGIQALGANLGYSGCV [R20α-4-20A12-IR]"
  tested on: "IGF-1R (Homo sapiens)"
  qualitative label: "Y"
- chain: "SSCDGAGHESFYEWFVRQVSGCRSV [H2CA-3-C8-IGFR]"
  tested on: "IGF-1R (Homo sapiens)"
  qualitative label: "N"
- chain: "RGQSDAFYSGLWALIGLSDG [Peptide R20β-4-A6-IR]"
  tested on: "IGF-1R (Homo sapiens)"
  qualitative label: "Y"
- chain: "GCAVVEEAERSRGDPFYHKLSELIQGC [Peptide B6Hα-3-E7-IR]"
  tested on: "IGF-1R (Homo sapiens)"
  qualitative label: "N"
- chain: "RGAVAGFHDQFYDWFDRQVSRVHKFG [H2CA-4-H9-IGFR]"
  tested on: "IGF-1R (Homo sapiens)"
  qualitative label: "N"
- chain: "LGYQEPFQQNFYDWFVRQVSGAENAG [H2CA-3-E8-IGFR]"
  tested on: "IGF-1R (Homo sapiens)"
  qualitative label: "N"
- chain: "AETSVQVGWIRLQSVWPGEHWNTVDPFYHKLSELLRGSGA [Peptide B6L-4-D7-IR]"
  tested on: "IGF-1R (Homo sapiens)"
  qualitative label: "N"
- chain: "RFDPFYSYFVNLLGASA [NNRPγ-4-A7-IR]"
  tested on: "IGF-1R (Homo sapiens)"
  qualitative label: "N"
